system: K562; experiment: NCI tumour cell line growth inhibition, 48 h
Activity calls are given as the source filed them. Cut-off read from the data, not from the text of the source: active = GI50 up to about 1.1 µM and inactive = higher.
Form field: GI50 (one value per entry).

# compound, GI50
rows = [
    ("CCOC(=O)c1csc(NC(=O)CN(C)C)n1", "> 100 µM (inactive)"),
    ("O=C(CCC(=O)Nc1cccc(C(F)(F)F)c1)CC(=O)c1ccc2ccccc2c1", "> 100 µM (inactive)"),
    ("NC(=O)C(=O)C1C(=O)N(c2ccccc2)N=C1N (stereo not given)", "> 100 µM (inactive)"),
    ("Clc1ccccc1C(c1ccccc1)(c1ccccc1)n1ccnc1 [CLOTRIMAZOLE]", "5.97 µM (inactive)"),
    ("O=C(O)c1ccccn1 [2-PICOLINIC ACID]", "> 100 µM (inactive)"),
    ("Cn1c2ccccc2c2[nH]cc3nc4ccccc4c-3c21", "26.7 µM (inactive)"),
    ("COC(=O)CCc1c(Cc2ccc[nH]2)[nH]c(C(=O)OCc2ccccc2)c1C", "25.5 µM (inactive)"),
    ("COC(c1ccc(C(C)(C)C)cc1)(c1ccc(C(C)(C)C)cc1)c1cc(C(O)(c2cc(C(OC)(c3ccc(C(C)(C)C)cc3)c3ccc(C(C)(C)C)cc3)c(C)cc2C)c2cc(C(OC)(c3ccc(C(C)(C)C)cc3)c3ccc(C(C)(C)C)cc3)c(C)cc2C)c(C)cc1C", "> 100 µM (inactive)"),
    ("Cc1c(/N=N/c2ccc(Cl)cc2)c(-c2ccccc2)n(C2OC(CO)C(O)C(O)C2O)c(=S)c1C#N (stereo not given)", "13.6 µM (inactive)"),
    ("CCC1OC2C(CC=C(C)C)=C3OC(C)(O)C(C)(CC)C(=O)C3=C3OC(=O)C=C1C32 (stereo not given)", "26 µM (inactive)"),
]

Data provenance: ChEMBL document CHEMBL1201862
